system: HOP-92 NSCLC; assay: NCI-60 one-dose screen, 48 h; conditions: 10 µM unless noted
Compounds without any hit were thinned out: in the full panel of roughly 83,000, 20% have a hit. Active and inactive are the calls of the source. How the source made its calls: active means growth percent below 10; inactive means the rest.
Answer with one of the outcomes given here: active, inactive

[[record]]
molecule = "O=C(c1ccc(-c2nc(CSc3nc4ccccc4s3)no2)cc1)N1CCSCC1"
qualitative_label = "inactive"


Problem: Any idea what this test logged for COc1cc(CNS(=O)(=O)c2ccc(C)cc2)ccc1OCc1cn(-c2ccc(Br)cc2)nn1 ?
Result: inactive

Problem: Further, for COc1cc(OC)cc(C2=C3CC[C@@H]4[C@H](CC[C@]5(C)C(=O)CC[C@@H]45)C3=CC3C(O)c4cccnc4N4C(=O)COC234)c1 (some centres undefined) ?
Result: inactive

Problem: Further, for CC1Cc2c(Cl)ncnc2N(C)c2ccc(F)cc21 (centres undefined) ?
Result: inactive
